measured.target: Wee1-like protein kinase (Homo sapiens)
Sequence (P30291 whole entry): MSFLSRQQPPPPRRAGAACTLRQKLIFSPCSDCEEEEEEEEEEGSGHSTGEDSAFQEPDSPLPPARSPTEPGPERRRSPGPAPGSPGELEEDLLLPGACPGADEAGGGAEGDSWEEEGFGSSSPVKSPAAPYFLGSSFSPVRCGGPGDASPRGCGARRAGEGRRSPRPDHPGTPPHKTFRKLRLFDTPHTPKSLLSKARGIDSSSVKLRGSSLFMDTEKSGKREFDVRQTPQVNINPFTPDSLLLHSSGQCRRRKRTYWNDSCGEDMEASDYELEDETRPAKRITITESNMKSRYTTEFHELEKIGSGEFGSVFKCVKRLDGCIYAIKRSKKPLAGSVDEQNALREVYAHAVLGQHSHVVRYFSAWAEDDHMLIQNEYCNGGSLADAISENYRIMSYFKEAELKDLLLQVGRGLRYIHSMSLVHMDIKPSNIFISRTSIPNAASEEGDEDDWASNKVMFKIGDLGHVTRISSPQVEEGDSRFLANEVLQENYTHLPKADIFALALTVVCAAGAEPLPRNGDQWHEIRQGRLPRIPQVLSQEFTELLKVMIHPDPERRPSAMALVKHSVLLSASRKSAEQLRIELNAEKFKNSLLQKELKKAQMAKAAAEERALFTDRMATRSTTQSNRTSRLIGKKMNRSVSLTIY
assay.text: Inhibition of human Weel1 in human NCI-H1299 cells assessed as phosphorylation of Cdk1 after overnight incubation by ELISA PD assay
Format: cell-based
Would you mind telling me the reported EC50 of each entry?

What measured EC50 goes with CN1CCC(c2ccc(Nc3ncc4c(=O)n(-c5ccccc5Cl)c5nccn5c4n3)cc2)CC1 ?
3.1 µM

Give its EC50 value. Item: O=c1c2cnc(Nc3ccccc3)nc2n2ccnc2n1-c1ccccc1Cl
6.8 µM

What measured EC50 goes with CN1CCCc2cc(Nc3ncc4c(=O)n(-c5ccccc5Cl)c5nccn5c4n3)ccc21 ?
2.7 µM

Would you mind telling me what EC50 value was observed for CN1CCc2ccc(Nc3ncc4c(=O)n(-c5ccccc5Cl)c5nccn5c4n3)cc2C1 ?
0.22 µM

Endpoint output: EC50 of CN1CCN(c2cccc(Nc3ncc4c(=O)n(-c5ccccc5Cl)c5nccn5c4n3)c2)CC1 . Value?
1.5 µM

GET /values?readout=EC50&item= O=c1c2cnc(Nc3ccc(N4CCCCC4)cc3)nc2n2ccnc2n1-c1ccccc1Cl
3.8 µM

Fill blank: measured EC50 of the molecule CN1Cc2cc(Nc3ncc4c(=O)n(-c5c(F)cccc5Cl)c5nccn5c4n3)ccc2C2(CC2)C1 is ____.
0.029 µM

Look up EC50 for this molecule: O=c1c2cnc(Nc3ccc(C4CCCCC4)cc3)nc2n2ccnc2n1-c1ccccc1Cl
10 µM

Can you share its EC50? I mean this molecule: CN1Cc2cc(Nc3ncc4c(=O)n(-c5c(Cl)cccc5Cl)c5nccn5c4n3)ccc2C2(CC2)C1
0.027 µM

Please look up its EC50: CN1CCN(c2ccc(Nc3ncc4c(=O)n(-c5ccccc5Cl)c5nccn5c4n3)cc2)CC1
0.37 µM

FYI, the data here is from ChEMBL document CHEMBL3352079.
